# PROTOCOL NOTES: Drug excretion in iv dosed human assessed as compound excreted into bile after 7 hrs by duodenal perfusion method
# Format: ADME, organism-based
# PROTOCOL CONDITIONS: read-out: Drug excretion
OBSERVABLE: dose excreted at 7 h

Given the compound CO[C@@]1(NC(=O)C2SC(=C(C(N)=O)C(=O)O)S2)C(=O)N2C(C(=O)O)=C(CSc3nnnn3C)CS[C@@H]21 (stereo partly specified) [CEFOTETAN] , what is its reported dose excreted at 7 h?
11%

====

# PROTOCOL NOTES: Drug excretion in iv dosed dog assessed as compound excreted into bile
# Assay type: ADME, organism-based, Canis lupus familiaris
# PROTOCOL CONDITIONS: read-out: Drug excretion
The entries below are paired with their reported dose excreted.
Just the number please, in %, no unit attached.

>  <COMPOUND>
C[C@H]1O[C@@H](O[C@H]2[C@@H](O)C[C@H](O[C@H]3[C@@H](O)C[C@H](O[C@H]4CC[C@@]5(C)[C@H](CC[C@@H]6[C@@H]5C[C@@H](O)[C@]5(C)[C@@H](C7=CC(=O)OC7)CC[C@]65O)C4)O[C@@H]3C)O[C@@H]2C)C[C@H](O)[C@@H]1O [DIGOXIN]

>  <OUTPUT UNIT>
%

>  <dose excreted>
7

$$$$

Field request: dose excreted | item: CC[C@H]1OC(=O)[C@H](C)[C@@H](O[C@H]2C[C@@](C)(OC)[C@@H](O)[C@H](C)O2)[C@H](C)[C@@H](O[C@@H]2O[C@H](C)C[C@H](N(C)C)[C@H]2O)[C@](C)(O)C[C@@H](C)C(=O)[C@H](C)[C@@H](O)[C@]1(C)O [ERYTHROMYCIN]
5

====

# System: Canis familiaris
# PROTOCOL NOTES: Unbound biliary clearance in iv dosed dog
# Type: ADME, organism-based, Canis lupus familiaris, Bile
# PROTOCOL CONDITIONS: in vivo
Recorded CL free for the following compounds
API: value field is a number in mL/min/kg; no unit string.

Study these solved cases before continuing.
>  <COMPOUND>
CC[C@H]1OC(=O)[C@H](C)[C@@H](O[C@H]2C[C@@](C)(OC)[C@@H](O)[C@H](C)O2)[C@H](C)[C@@H](O[C@@H]2O[C@H](C)C[C@H](N(C)C)[C@H]2O)[C@](C)(O)C[C@@H](C)C(=O)[C@H](C)[C@@H](O)[C@]1(C)O [ERYTHROMYCIN]

>  <TARGET OF ASSAY>
Canis familiaris

>  <EXPERIMENTAL VALUE>
4.483

$$$$
>  <COMPOUND>
CO[C@@]1(NC(=O)C2SC(=C(C(N)=O)C(=O)O)S2)C(=O)N2C(C(=O)O)=C(CSc3nnnn3C)CS[C@@H]21 (stereo not given in full) [CEFOTETAN]

>  <TARGET OF ASSAY>
Canis familiaris

>  <EXPERIMENTAL VALUE>
1.141

$$$$
>  <COMPOUND>
C[C@H]1O[C@@H](O[C@H]2[C@@H](O)C[C@H](O[C@H]3[C@@H](O)C[C@H](O[C@H]4CC[C@@]5(C)[C@H](CC[C@@H]6[C@@H]5C[C@@H](O)[C@]5(C)[C@@H](C7=CC(=O)OC7)CC[C@]65O)C4)O[C@@H]3C)O[C@@H]2C)C[C@H](O)[C@@H]1O [DIGOXIN]

>  <TARGET OF ASSAY>
Canis familiaris

>  <EXPERIMENTAL VALUE>
2.68

$$$$
>  <COMPOUND>
CN(Cc1cnc2nc(N)nc(N)c2n1)c1ccc(C(=O)N[C@@H](CCC(=O)O)C(=O)O)cc1 [METHOTREXATE]

>  <TARGET OF ASSAY>
Canis familiaris

>  <EXPERIMENTAL VALUE>
0.344

$$$$

Given the compound COc1cccc2c1C(=O)c1c(O)c3c(c(O)c1C2=O)C[C@@](O)(C(=O)CO)C[C@@H]3O[C@H]1C[C@H](N)[C@H](O)[C@H](C)O1 [DOXORUBICIN] , what is its reported CL free?
5.059

====

# PROTOCOL NOTES: Drug excretion in iv dosed Wistar rat assessed as compound excreted into bile
# Type: ADME, organism-based
# PROTOCOL CONDITIONS: read-out: Drug excretion
OBSERVABLE: dose excreted (%)
Just the number please, in %, no unit attached.

Consider the worked cases shown below.
>  <MOLECULE>
CC(C)(C(=O)O)c1ccc(C(O)CCCN2CCC(C(O)(c3ccccc3)c3ccccc3)CC2)cc1 (stereo not drawn) [FEXOFENADINE]

>  <dose excreted (%)>
28

$$$$
>  <MOLECULE>
Cn1nnnc1SCC1=C(C(=O)O)N2C(=O)[C@@H](NC(=O)[C@H](O)c3ccccc3)[C@H]2SC1 [CEFAMANDOLE]

>  <dose excreted (%)>
33

$$$$

// next entry
Tell me the measured dose excreted of O=C([O-])Cc1ccccc1Nc1c(Cl)cccc1Cl.[Na+] [DICLOFENAC SODIUM] , please.
5

====

# PROTOCOL NOTES: Drug excretion in iv dosed human assessed as compound excreted into bile by T-tube method
# Type: ADME, organism-based
# PROTOCOL CONDITIONS: read-out: Drug excretion
OBSERVABLE: dose excreted (%)
Quick reminder: number only, in %, skip the unit.

Suppose we examine the compound Cc1nnc(SCC2=C(C(=O)O)N3C(=O)[C@@H](NC(=O)Cn4cnnn4)[C@H]3SC2)s1 [CEFAZOLIN] ; what dose excreted value has been reported?
0.1

====

# PROTOCOL NOTES: Drug excretion in rat assessed as compound excreted into bile at 10 mg/kg, iv
OBSERVABLE: dose excreted (%)
Number in %, nothing else.

Entry under review: O=C(O)c1cn(C2CC2)c2cc(N3CCNCC3)c(F)cc2c1=O . Reported dose excreted?
10

====

# Test system: Canis familiaris
# PROTOCOL NOTES: Total biliary clearance in iv dosed dog
# Type: ADME, organism-based, Canis lupus familiaris, Bile
# PROTOCOL CONDITIONS: in vivo
OBSERVABLE: CL (mL/min/kg)
Report the figure in mL/min/kg without appending any unit label.

Fill in the recorded CL for this compound, with Canis familiaris as test system: CN(Cc1cnc2nc(N)nc(N)c2n1)c1ccc(C(=O)N[C@@H](CCC(=O)O)C(=O)O)cc1 [METHOTREXATE]
0.217

# value lookup — system Canis familiaris, readout CL, item COc1cccc2c1C(=O)c1c(O)c3c(c(O)c1C2=O)C[C@@](O)(C(=O)CO)C[C@@H]3O[C@H]1C[C@H](N)[C@H](O)[C@H](C)O1
1.72

// fetch Canis familiaris CL for C[C@H]1O[C@@H](O[C@H]2[C@@H](O)C[C@H](O[C@H]3[C@@H](O)C[C@H](O[C@H]4CC[C@@]5(C)[C@H](CC[C@@H]6[C@@H]5C[C@@H](O)[C@]5(C)[C@@H](C7=CC(=O)OC7)CC[C@]65O)C4)O[C@@H]3C)O[C@@H]2C)C[C@H](O)[C@@H]1O
1.313

Quick check: CL on Canis familiaris, item CO[C@@]1(NC(=O)C2SC(=C(C(N)=O)C(=O)O)S2)C(=O)N2C(C(=O)O)=C(CSc3nnnn3C)CS[C@@H]21 (stereo not given in full) ?
0.696

Canis familiaris / CL / CC[C@H]1OC(=O)[C@H](C)[C@@H](O[C@H]2C[C@@](C)(OC)[C@@H](O)[C@H](C)O2)[C@H](C)[C@@H](O[C@@H]2O[C@H](C)C[C@H](N(C)C)[C@H]2O)[C@](C)(O)C[C@@H](C)C(=O)[C@H](C)[C@@H](O)[C@]1(C)O : value?
2.376

====

# PROTOCOL NOTES: Drug excretion in human assessed as compound excreted into bile at 2 gm, iv after 24 hrs by T-tube method
# Type: ADME, organism-based
# PROTOCOL CONDITIONS: read-out: Drug excretion
OBSERVABLE: dose excreted at 24 h (%)
State the answer as a number, implicitly in %.

Give its dose excreted at 24 h value. Item: CCN1CCN(C(=O)N[C@@H](C(=O)N[C@@H]2C(=O)N3C(C(=O)O)=C(CSc4nnnn4C)CS[C@H]23)c2ccc(O)cc2)C(=O)C1=O
12

====

# PROTOCOL NOTES: Drug excretion in human assessed as compound excreted into bile at 1 nmol/l, iv after 8 hrs
# Format: ADME, organism-based
# PROTOCOL CONDITIONS: read-out: Drug excretion
OBSERVABLE: dose excreted at 8 h (%)
Hi! Could you send only the number? It should be in %, unit omitted.

Give its dose excreted at 8 h value. Item: C[C@H]1O[C@@H](O[C@H]2[C@@H](O)C[C@H](O[C@H]3[C@@H](O)C[C@H](O[C@H]4CC[C@@]5(C)[C@H](CC[C@@H]6[C@@H]5C[C@@H](O)[C@]5(C)[C@@H](C7=CC(=O)OC7)CC[C@]65O)C4)O[C@@H]3C)O[C@@H]2C)C[C@H](O)[C@@H]1O [DIGOXIN]
41
